The reported numbers originate from the supplement of paper PMC10567573.

B1: VTI1B (parent)
chain: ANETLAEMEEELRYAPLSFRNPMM

# Variants of: B1
# measurement_description: protein stability index of a GFP-peptide fusion (GPS, HEK-293T) (PSI 1-6); higher = more stable;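 also: lentivirally expressed fusions sorted by FACS into six bins by GFP to DsRed ratio, PSI derived from sequencing read proportions per bin multiplied by bin number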
# particulars: c terminus: a fixed tail appended
measure_name: protein stability index

{"columns": ["query_sequence", "measure_name", "data_value"],
 "data": [
  ["ANETLAEMEEELRYAPLSFRNWMM [P22W]", "protein stability index", 3.03],
  ["ANETLAEMEEELRYAPLSFRNEMM [P22E]", "protein stability index", 3.97],
  ["ANETLAEMEEELRYIPLSFRNPMM [A15I]", "protein stability index", 2.06],
  ["ANETLAEMEEELRYAPLTFRNPMM [S18T]", "protein stability index", 1.79],
  ["ANETLAEMEEELRMAPLSFRNPMM [Y14M]", "protein stability index", 1.65],
  ["ANETLACMEEELRYAPLSFRNPMM [E7C]", "protein stability index", 2.01],
  ["ANEKLAEMEEELRYAPLSFRNPMM [T4K]", "protein stability index", 2.72],
  ["ANETLAEMEEETRYAPLSFRNPMM [L12T]", "protein stability index", 3.9],
  ["ANETLAEMGEELRYAPLSFRNPMM [E9G]", "protein stability index", 2.19],
  ["ANETLAEMEEELRYAPLSKRNPMM [F19K]", "protein stability index", 4.49],
  ["ANETLAEMEEELRYAPLSFRNPRM [M23R]", "protein stability index", 2.19],
  ["ANETLAEMEEELRYAPLSVRNPMM [F19V]", "protein stability index", 3.28],
  ["ANETLAEMEIELRYAPLSFRNPMM [E10I]", "protein stability index", 2.05],
  ["ANETLAEMEEEKRYAPLSFRNPMM [L12K]", "protein stability index", 3.27],
  ["ANETLAEMEEELRYARLSFRNPMM [P16R]", "protein stability index", 2.71],
  ["ANETLAEMEEELRYAPLSFRNPMG [M24G]", "protein stability index", 3.72],
  ["ANETLAEMEEELRYAPLQFRNPMM [S18Q]", "protein stability index", 3.35],
  ["ANETLAEMEETLRYAPLSFRNPMM [E11T]", "protein stability index", 3.25],
  ["ANETLAEMEEELRYAPASFRNPMM [L17A]", "protein stability index", 3.66],
  ["ANELLAEMEEELRYAPLSFRNPMM [T4L]", "protein stability index", 2.47],
  ["ANETLAELEEELRYAPLSFRNPMM [M8L]", "protein stability index", 2.3],
  ["ANETLAEMEEELRYAPLSFRNKMM [P22K]", "protein stability index", 3.43],
  ["ANETLAEMEEELRYQPLSFRNPMM [A15Q]", "protein stability index", 1.67],
  ["ANETLAEMEEELRYAPLSTRNPMM [F19T]", "protein stability index", 4.44],
  ["ANETLAEMEEELRHAPLSFRNPMM [Y14H]", "protein stability index", 1.7],
  ["ANETLVEMEEELRYAPLSFRNPMM [A6V]", "protein stability index", 2.16],
  ["ANETLAEMEEELRYAPLSFRNPQM [M23Q]", "protein stability index", 2.89],
  ["ANETLAEMEEEGRYAPLSFRNPMM [L12G]", "protein stability index", 2.62],
  ["AYETLAEMEEELRYAPLSFRNPMM [N2Y]", "protein stability index", 2.05],
  ["ANETLAEMEEELTYAPLSFRNPMM [R13T]", "protein stability index", 1.42],
  ["ANETLAEMEEELRYAPISFRNPMM [L17I]", "protein stability index", 3.02],
  ["ANETHAEMEEELRYAPLSFRNPMM [L5H]", "protein stability index", 3.14],
  ["ANETLAEMEEELRYAPLSFRNPNM [M23N]", "protein stability index", 3.67],
  ["ANETLAEMWEELRYAPLSFRNPMM [E9W]", "protein stability index", 1.3],
  ["ANETLAEMEEELRYAPLSFVNPMM [R20V]", "protein stability index", 1.71],
  ["ANETLAEMEEELRYAPSSFRNPMM [L17S]", "protein stability index", 2.8],
  ["ANETLAEMEEELRYAPLSFRIPMM [N21I]", "protein stability index", 2.92],
  ["ANEELAEMEEELRYAPLSFRNPMM [T4E]", "protein stability index", 3.26],
  ["ANETLAEMEEEMRYAPLSFRNPMM [L12M]", "protein stability index", 2.28],
  ["ANETLAEMEEKLRYAPLSFRNPMM [E11K]", "protein stability index", 3.41]
]}
